MEASURED ON: Human CD33 R69G (human, UniProt P20138 18-259)
Sequence (P20138 18-259 R69G): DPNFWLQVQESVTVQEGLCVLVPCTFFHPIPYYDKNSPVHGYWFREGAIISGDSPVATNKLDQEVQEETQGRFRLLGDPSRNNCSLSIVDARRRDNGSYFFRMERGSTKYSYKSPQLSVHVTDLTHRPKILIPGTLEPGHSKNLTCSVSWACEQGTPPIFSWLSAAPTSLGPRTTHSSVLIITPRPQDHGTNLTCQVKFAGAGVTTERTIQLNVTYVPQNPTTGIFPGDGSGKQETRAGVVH
PROTOCOL DETAILS: SPR captured Fab
ENDPOINT: koff (s⁻¹)
The figure you give is taken to be in s⁻¹; do not add the unit.

Worked examples, 4 binders total:
BINDER	UNIT TEXT	koff
ADI-11815 Fab (Fab, V domains shown, Fab fragment; also called Ab7) VH: QVQLVQSGAEVKKPGASVKVSCKASGYTFGTYYMHWVRQAPGQGLEWMGIINPSRGSTVYAQKFQGRVTMTRDTSTSTVYMELSSLRSEDTAVYYCARGAGYDDEDMDVWGKGTTVTVSS VL: DIQMTQSPSSVSASVGDRVTITCRASQGIDSWLAWYQQKPGKAPKLLIYAASSLQSGVPSRFSGSGSGTDFTLTISSLQPEDFATYYCQQAHSYPLTFGGGTKVEIK	s⁻¹	0.0013
ADI-11825 Fab (Fab, V domains shown, Fab fragment; also called Ab25) VH: EVQLVESGGGLVQPGGSLRLSCAASGFTFGGYWMSWVRQAPGKGLEWVANINQDGSEEYYVDSVKGRFTISRDNAKNSLYLQMNSLRAEDTAVYYCAREANYYGNVGDDYWGQGTLVTVSS VL: DIQMTQSPSSLSASVGDRVTITCRASQSIYNYLNWYQQKPGKAPKLLIYAASNLHSGVPSRFSGSGSGTDFTLTISSLQPEDFATYYCQQAFHVPITFGGGTKVEIK	s⁻¹	0.00695
ADI-11819 Fab (Fab, V domains shown, Fab fragment; also called Ab8) VH: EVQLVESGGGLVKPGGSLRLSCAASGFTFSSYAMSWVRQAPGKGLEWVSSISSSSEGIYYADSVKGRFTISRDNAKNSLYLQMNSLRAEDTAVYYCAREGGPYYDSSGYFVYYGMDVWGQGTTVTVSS VL: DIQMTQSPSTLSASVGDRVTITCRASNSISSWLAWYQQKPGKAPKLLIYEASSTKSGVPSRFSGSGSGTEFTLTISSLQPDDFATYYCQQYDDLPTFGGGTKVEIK	s⁻¹	0.000244
ADI-11830 Fab (Fab, V domains shown, Fab fragment; also called Ab9) VH: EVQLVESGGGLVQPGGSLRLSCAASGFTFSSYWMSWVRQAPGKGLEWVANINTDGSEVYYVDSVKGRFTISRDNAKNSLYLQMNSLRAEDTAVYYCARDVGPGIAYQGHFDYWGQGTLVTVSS VL: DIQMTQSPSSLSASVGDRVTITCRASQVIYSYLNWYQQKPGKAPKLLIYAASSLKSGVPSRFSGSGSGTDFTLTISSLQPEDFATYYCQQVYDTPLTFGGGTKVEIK	s⁻¹	0.00663

Query binder follows.
Give recorded koff. ADI-11776 Fab (Fab, V domains shown, Fab fragment; also called Ab3; H76) VH: EVQLLESGGGLVQPGGSLRLSCAASGFTFSKYTMSWVRQAPGKGLEWVSAIVGSGESTYFADSVKGRFTISRDNSKNTLYLQMNSLRAEDTAVYYCAREGGPYYDSSGYFVYYGMDVWGQGTTVTVSS VL: DIQMTQSPSTLSASVGDRVTITCRASQSISSWLAWYQQKPGKAPKLLIYKASSLESGVPSRFSGSGSGTEFTLTISSLQPDDFATYYCQQYDDLPTFGGGTKVEIK
0.000426
